Reference source: patent US20180258158A1

target: T1, human serum albumin (HSA), full length (human, UniProt P02768 25-609); test: SPR off-rate ratio to parent ADX_7016_A01, HSA, 25 C
T1 construct: mature; Immobilized on CM5 chip (SPR) or coated on plates (ELISA)
T1 sequence (P02768 25-609): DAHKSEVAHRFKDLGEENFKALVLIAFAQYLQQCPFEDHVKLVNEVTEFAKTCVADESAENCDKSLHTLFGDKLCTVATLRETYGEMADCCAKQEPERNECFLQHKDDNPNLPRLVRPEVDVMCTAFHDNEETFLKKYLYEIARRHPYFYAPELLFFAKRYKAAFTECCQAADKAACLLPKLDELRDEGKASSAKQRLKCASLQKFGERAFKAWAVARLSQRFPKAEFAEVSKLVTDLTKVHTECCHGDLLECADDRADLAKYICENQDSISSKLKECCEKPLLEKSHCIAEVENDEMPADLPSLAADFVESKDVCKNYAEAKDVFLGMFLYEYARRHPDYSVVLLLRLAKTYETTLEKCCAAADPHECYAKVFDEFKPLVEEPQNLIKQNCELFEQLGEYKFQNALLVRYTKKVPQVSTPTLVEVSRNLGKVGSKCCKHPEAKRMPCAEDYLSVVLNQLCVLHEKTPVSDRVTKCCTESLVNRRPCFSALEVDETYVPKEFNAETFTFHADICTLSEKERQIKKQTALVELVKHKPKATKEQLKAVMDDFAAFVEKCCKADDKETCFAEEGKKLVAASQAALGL
Each record here notes measured HSA kd/Parent kd.

{"columns": ["binder", "HSA kd/Parent kd"],
 "data": [
  ["ADX_6727_B11 (Q33D/K85S) (designed binder, Full His6-tagged entry) MGVSDVPRDLEVVAATPTSLLISWDAPAVTVRYYRITYGREVDKYSDLGPLYIYQEFTVPGSKSTATISGLKPGVDYTITVYAVTGSGESPASSSPISINYRTEIDKPSQHHHHHH", 56],
  ["ADX_6727_B04 (Y35S/K85S) (designed binder, Full His6-tagged entry) MGVSDVPRDLEVVAATPTSLLISWDAPAVTVRYYRITYGREVQKSSDLGPLYIYQEFTVPGSKSTATISGLKPGVDYTITVYAVTGSGESPASSSPISINYRTEIDKPSQHHHHHH", 4.1]
]}
